Hello, the source for this data is the supplement of paper PMC8967900, in case you need it.

System: HAL-01
Experiment: selective drug sensitivity score (sDSS, relative to normal bone marrow) (sDSS (score)); higher = more potent and effective on the cell line relative to normal bone marrow cells;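 further: ALL cell lines in 384-well plates, five doses spanning 10,000-fold, each plate scaled between vehicle and 100 µmol/L benzalkonium chloride controls, sDSS an adapted area-under-curve metric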
Conditions: 72 h
Metric Name: selective drug sensitivity score

>>> result_value("COc1cc(OC)cc(N(CCNC(C)C)c2ccc3ncc(-c4cnn(C)c4)nc3c2)c1 [Erdafitinib] (top concentration 1000 nM)")
6.94
>>> result_value("COc1cc2c(NC3CCN(C(C)C)CC3)nc(N3CCC(F)(F)CC3)nc2cc1OCCCN1CCCC1 [UNC0642] (top concentration 10000 nM)")
-3.54
>>> result_value("NS(=O)(=O)NCCNc1nonc1/C(=N/O)Nc1ccc(F)c(Br)c1 [Epacadostat] (top concentration 10000 nM)")
0.84
>>> result_value("Cn1cc(C2=C(c3cn(C4CCN(Cc5ccccn5)CC4)c4ccccc34)C(=O)NC2=O)c2ccccc21 [Enzastaurin] (top concentration 10000 nM)")
-0.34
>>> result_value("S=C(NCc1ccc2c(c1)OCO2)N1CCN(c2ncnc3c2oc2ccccc23)CC1 [Amuvatinib] (top concentration 10000 nM)")
2.96
>>> result_value("O=C(NOC[C@H](O)CO)c1ccc(F)c(F)c1Nc1ccc(I)cc1F (top concentration 1000 nM)")
6.34

====

System: CCRF-HSB2
Assay: selective drug sensitivity score (sDSS, relative to normal bone marrow) (sDSS (score)); higher = more potent and effective on the cell line relative to normal bone marrow cells
Conditions: 72 h
Mark label 1 for reported selective drug sensitivity score of 0.9 or greater; mark label 0 for anything smaller.

>>> assigned_category("CN(C)C(=N)NC(=N)N [Metformin] (top concentration 100000 nM)")
"label 0"
>>> assigned_category("O=C(Nc1ccc(OC(F)(F)Cl)cc1)c1cnc(N2CC[C@@H](O)C2)c(-c2cc[nH]n2)c1 [Asciminib] (top concentration 1000 nM)")
"label 0"
>>> assigned_category("Cn1cc(-c2cnn3c(N)c(Br)c([C@@H]4CCCNC4)nc23)cn1 [MK-8776] (top concentration 2500 nM)")
"label 0"
>>> assigned_category("O=C(NOC[C@H](O)CO)c1ccc(F)c(F)c1Nc1ccc(I)cc1F (top concentration 1000 nM)")
"label 0"
>>> assigned_category("O=C(NC[C@H](O)CN1CCc2ccccc2C1)c1cc(NC2COC2)ncn1 (top concentration 10000 nM)")
"label 1"
>>> assigned_category("COc1cc2c(NC3CCN(C(C)C)CC3)nc(N3CCC(F)(F)CC3)nc2cc1OCCCN1CCCC1 [UNC0642] (top concentration 10000 nM)")
"label 0"
>>> assigned_category("C=CC(=O)Nc1cc2c(Nc3ccc(F)c(Cl)c3)ncnc2cc1OCCCN1CCOCC1 [Canertinib] (top concentration 10000 nM)")
"label 1"
>>> assigned_category("CC(=O)N(O)CCCCCNC(=O)CCC(=O)N(O)CCCCCNC(=O)CCC(=O)N(O)CCCCCN [Deferoxamine] (top concentration 10000 nM)")
"label 1"
>>> assigned_category("Cc1ccc(C(=O)Nc2ccc(CN3CCN(C)CC3)c(C(F)(F)F)c2)cc1C#Cc1cnc2cccnn12 [Ponatinib] (top concentration 1000 nM)")
"label 1"
>>> assigned_category("CC[C@]1(O)C[C@H]2CN(CCc3c([nH]c4ccccc34)[C@@](C(=O)OC)(c3cc4c(cc3OC)N(C)[C@H]3[C@@](O)(C(=O)OC)[C@H](OC(C)=O)[C@]5(CC)C=CCN6CC[C@]43[C@@H]65)C2)C1 [Vinblastine] (top concentration 1000 nM)")
"label 0"
>>> assigned_category("CC(=O)OC[C@H]1O[C@@H]([S-])[C@H](OC(C)=O)[C@@H](OC(C)=O)[C@@H]1OC(C)=O.CCP(CC)CC.[Au+] [Auranofin] (top concentration 2500 nM)")
"label 0"
>>> assigned_category("C[C@]12C=CC(=O)C=C1CC[C@@H]1[C@@H]2[C@@H](O)C[C@@]2(C)[C@H]1CC[C@]2(O)C(=O)CO [Prednisolone] (top concentration 10000 nM)")
"label 1"
>>> assigned_category("C[C@H](Nc1ncnc2[nH]cnc12)c1cc2ccc(F)cc2nc1-c1ccccn1 [AMG319] (top concentration 1000 nM)")
"label 0"
>>> assigned_category("O=C(CCCCCCC(=O)Nc1ccccc1)NO [Vorinostat] (top concentration 10000 nM)")
"label 1"
>>> assigned_category("CC(C)N(C[C@H]1O[C@@H](n2cnc3c(N)ncnc32)[C@H](O)[C@@H]1O)[C@H]1C[C@@H](CCc2nc3cc(C(C)(C)C)ccc3[nH]2)C1 [Pinometostat] (top concentration 1000 nM)")
"label 0"
>>> assigned_category("O=C(/C=C\\n1cnc(-c2cc(C(F)(F)F)cc(C(F)(F)F)c2)n1)NNc1ccccn1 [Verdinexor] (top concentration 1000 nM)")
"label 1"
>>> assigned_category("CC(C)C[C@H](NC(=O)[C@H](CCc1ccccc1)NC(=O)CN1CCOCC1)C(=O)N[C@@H](Cc1ccccc1)C(=O)N[C@@H](CC(C)C)C(=O)[C@@]1(C)CO1 [Carfilzomib] (top concentration 1000 nM)")
"label 1"
>>> assigned_category("CN(C)CCCOc1ccc(-c2ccc3ncc4c(c3c2)n(C2CCOCC2)c(=O)n4C)cn1 [AZD0156] (top concentration 1000 nM)")
"label 1"
>>> assigned_category("O=C(c1ccc(C(=O)N2CCC(N3CCCC3)CC2)c(Nc2ccccc2)c1)N1CCC(N2CCCC2)CC1 [UNC1215] (top concentration 10000 nM)")
"label 0"
>>> assigned_category("C[C@H]1Oc2cc(cnc2N)-c2c(nn(C)c2C#N)CN(C)C(=O)c2ccc(F)cc21 (top concentration 1000 nM)")
"label 0"
>>> assigned_category("CC[C@H](NC(=O)[C@H](C)NC)C(=O)N1C[C@@H](O)C[C@H]1Cc1c(-c2[nH]c3cc(F)ccc3c2C[C@@H]2C[C@H](O)CN2C(=O)[C@H](CC)NC(=O)[C@H](C)NC)[nH]c2cc(F)ccc12 [Birinapant] (top concentration 1000 nM)")
"label 1"
>>> assigned_category("COc1ccc2[nH]cc(/C=C3\\C(=O)Nc4ccc(NC(=O)CCN5CCCCC5)cc43)c2c1 (top concentration 50000 nM)")
"label 1"
>>> assigned_category("C[C@@H](Oc1cc(-n2cnc3ccc(CN4CCN(C)CC4)cc32)sc1C(N)=O)c1ccccc1C(F)(F)F (top concentration 10000 nM)")
"label 1"

====

System: MHH-CALL-4
Experiment: selective drug sensitivity score (sDSS, relative to normal bone marrow) (sDSS (score)); higher = more potent and effective on the cell line relative to normal bone marrow cells
Details: 72 h
The entries below are paired with their reported selective drug sensitivity score.
Metric Name: selective drug sensitivity score

>>> result_value("CC(=O)Nc1ccc(C(=O)Nc2ccccc2N)cc1 [Tacedinaline] (top concentration 1000 nM)")
9.18
>>> result_value("CC(C)NC[C@@H](C(=O)N1CCN(c2ncnc3c2[C@H](C)C[C@H]3O)CC1)c1ccc(Cl)cc1 [Ipatasertib] (top concentration 10000 nM)")
4.5
>>> result_value("Cc1cc(Nc2cc(N3CCN(C)CC3)nc(/C=C/c3ccccc3)n2)n[nH]1 [ENMD-2076] (top concentration 10000 nM)")
0.34

====

System: COG-LL-394h
Assay: selective drug sensitivity score (sDSS, relative to normal bone marrow) (sDSS (score)); higher = more potent and effective on the cell line relative to normal bone marrow cells
Conditions: 72 h
Metric Name: selective drug sensitivity score

>>> result_value("C[C@H](Nc1ncnc2[nH]cnc12)c1cc2ccc(F)cc2nc1-c1ccccn1 [AMG319] (top concentration 1000 nM)")
-1.42
>>> result_value("Cc1ccc(NC(=O)c2ccc(CN3CCN(C)CC3)cc2)cc1Nc1nc(-c2cccnc2)cs1 [Masitinib] (top concentration 10000 nM)")
3.32
>>> result_value("CN1CCN(c2ccc(C(=O)Nc3n[nH]c4ccc(Cc5cc(F)cc(F)c5)cc34)c(NC3CCOCC3)c2)CC1 [Entrectinib] (top concentration 1000 nM)")
0.2
>>> result_value("NCCNc1ccc(NCCN)c2c1C(=O)c1ccncc1C2=O [Pixantrone] (top concentration 10000 nM)")
-2.66
>>> result_value("CC(=O)OC[C@H]1O[C@@H]([S-])[C@H](OC(C)=O)[C@@H](OC(C)=O)[C@@H]1OC(C)=O.CCP(CC)CC.[Au+] [Auranofin] (top concentration 2500 nM)")
0.14
>>> result_value("C[C@@H](Oc1cc(-n2cnc3ccc(CN4CCN(C)CC4)cc32)sc1C(N)=O)c1ccccc1C(F)(F)F (top concentration 10000 nM)")
3.22
>>> result_value("CC(C)(C)NC(=O)[C@H]1CC[C@H]2[C@@H]3CC[C@H]4NC(=O)C=C[C@]4(C)[C@H]3CC[C@]12C [Finasteride] (top concentration 10000 nM)")
-0.52
>>> result_value("CO[C@@H](C(=O)N1Cc2[nH]nc(NC(=O)c3ccc(N4CCN(C)CC4)cc3)c2C1)c1ccccc1 [Danusertib] (top concentration 10000 nM)")
2.64
>>> result_value("CNC(=O)c1cc(COc2nnc(Nc3ccc(Cl)cc3)c3ccoc23)ccn1 [Telatinib] (top concentration 10000 nM)")
0
>>> result_value("NC(=O)NO [Hydroxyurea] (top concentration 1000000 nM)")
-1.74
>>> result_value("COc1cccc2c1c(O)c(C(=O)N(C)c1ccc(C(F)(F)F)cc1)c(=O)n2C [Tasquinimod] (top concentration 10000 nM)")
-0.42
>>> result_value("Cn1cc(-c2cnn3c(N)c(Br)c([C@@H]4CCCNC4)nc23)cn1 [MK-8776] (top concentration 2500 nM)")
-0.96
>>> result_value("Cc1cnc(Nc2ccc(OCCN3CCCC3)cc2)nc1Nc1cccc(S(=O)(=O)NC(C)(C)C)c1 [Fedratinib] (top concentration 10000 nM)")
0.14
>>> result_value("Cc1ccc(NC(=O)c2ccc(CN3CCN(C)CC3)cc2)cc1Nc1nccc(-c2cccnc2)n1 [Imatinib] (top concentration 10000 nM)")
3.06
>>> result_value("COc1ccc(-c2ccc3ncc4c(c3c2)n(-c2ccc(N3CCNCC3)c(C(F)(F)F)c2)c(=O)n4C)cn1 [NVP-BGT226] (top concentration 1000 nM)")
-0.48
>>> result_value("COc1cc(OC)c(/C=C/S(=O)(=O)Cc2ccc(OC)c(NCC(=O)O)c2)c(OC)c1 [Rigosertib] (top concentration 10000 nM)")
6.76
>>> result_value("C1=N/C2=N/c3ccc(OCCN4CCCC4)c(c3)COC/C=C/COCc3cccc(c3)C(=C1)N2 [Pacritinib] (top concentration 10000 nM)")
-4
>>> result_value("CNc1nc(Nc2cn(C(C)(C)C#N)nc2C)ncc1C(F)(F)F [GNE-0877] (top concentration 1000 nM)")
0
>>> result_value("CN(C)C(=O)c1cc2cnc(Nc3ccc(N4CCNCC4)cn3)nc2n1C1CCCC1 [Ribociclib] (top concentration 10000 nM)")
-2.02
>>> result_value("CC/C(=C(\\c1ccc(O)cc1)c1ccc(OCCN(C)C)cc1)c1ccccc1 [4-hydroxytamoxifen] (top concentration 10000 nM)")
2.12
>>> result_value("COc1cc2ncnc(Oc3cccc(NC(=O)Nc4cc(C(C)(C)C(F)(F)F)on4)c3)c2cc1OC (top concentration 10000 nM)")
3.9
>>> result_value("Cc1c(N)nc([C@H](CC(N)=O)NC[C@H](N)C(N)=O)nc1C(=O)N[C@H](C(=O)N[C@H](C)[C@@H](O)[C@H](C)C(=O)N[C@H](C(=O)NCCc1nc(-c2nc(C(=O)NCCC[S+](C)C)cs2)cs1)[C@@H](C)O)[C@@H](O[C@@H]1O[C@@H](CO)[C@@H](O)[C@H](O)[C@@H]1O[C@H]1O[C@H](CO)[C@@H](O)[C@H](OC(N)=O)[C@@H]1O)c1c[nH]cn1 [Bleomycin] (top concentration 10000 nM)")
2.24
>>> result_value("C[C@@H]1CN(Cc2ccc(F)cc2)[C@@H](C)CN1C(=O)c1cc2c(C(=O)C(=O)N(C)C)cn(C)c2cc1Cl [Talmapimod] (top concentration 10000 nM)")
0.7
